# assayProtocol: Metabolic stability in human liver microsomes assessed as intrinsic clearance at 1 uM preincubated for 5 mins followed by NADPH addition and measured after 5 to 60 mins by LC-MS analysis
# Assay type: ADME, Microsome
# recordedConditions: time 10-65 min, read-out: CLH
quantityKind: microsomal CLint at 1 µM (µL/min/mg)
One number for each entry, in µL/min/mg.

Take a look at these entries with their results.
microsomal CLint at 1 µM for C[C@@H](O)[C@H](NC(=O)c1ccc(C#Cc2ccc(/C=N/N3CCN(C(=O)C4CC4)CC3)cc2)cc1)C(=O)NO is 4.73

Short answer for C[C@@H](O)[C@H](NC(=O)c1ccc(C#Cc2ccc(/C=N/N3CCN(C(=O)C(C)(C)C)CC3)cc2)cc1)C(=O)NO : microsomal CLint at 1 µM was 19.4

Looking up C[C@@H](O)[C@H](NC(=O)c1ccc(C#Cc2ccc(/C=N/N3CCOCC3)cc2)cc1)C(=O)NO , I found its microsomal CLint at 1 µM recorded as 7.16

# input for lookup
So for CCC(=O)N1CCN(/N=C/c2ccc(C#Cc3ccc(C(=O)N[C@H](C(=O)NO)[C@@H](C)O)cc3)cc2)CC1 , the logged microsomal CLint at 1 µM turned out to be 4.51
